system: Jurkat cells; test: IL-2 secretion assay in CD3/CD28-activated Jurkat cells (AlphaLISA); assay type: cell-based; details: Homo sapiens, CD3/CD28 T Cell Activator, 24 h, IL-2 AlphaLISA
pEC50: −log10 of the molar value.
Listed here: items and their measured pEC50.

- compound: "CC1CC(c2cccc(-n3cc(C4CC4)c4cc(CNC5(C(F)(F)F)CC5)[nH]c4c3=O)c2)(c2nncn2C)C1 (stereo not shown)"
  result: "5.30 to 6.00"
- compound: "C[C@H]1CCCN(Cc2nc3c(C4CC4)cn(-c4cccc([C@]5(c6nncn6C)C[C@H](C)C5)c4)c(=O)c3[nH]2)C1"
  result: "> 7.00"
- compound: "Cn1nncc1-c1c[nH]c2c(=O)n(-c3cccc([C@]4(c5nncn5C)C[C@@H](C)C4)c3)cc(C3CC3)c12"
  result: "< 5.30"
- compound: "Cn1cnnc1C1(c2cccc(-n3cc(C4CC4)c4cc(CN5CCC6(CC6)C5)[nH]c4c3=O)c2)CC2(CC2)C1"
  result: "6.00 to 7.00"
- compound: "CC1CC(c2cccc(-n3cc(C4CC4)c4cc(CN(C)C5CC5)[nH]c4c3=O)c2)(c2nncn2C)C1 (stereo not shown)"
  result: "6.00 to 7.00"
- compound: "C[C@H]1CCCN(Cc2cc3c(C4CC4)cn(-c4cccc(C5(Cn6ccnn6)CC(F)(F)C5)c4)c(=O)c3[nH]2)C1"
  result: "6.00 to 7.00"

Field: next compound
COC(C)(c1cccc(-n2cc(C3CC3)c3cc(CN4CCC[C@H](C)C4)[nH]c3c2=O)c1)c1nncn1C (stereo partly shown) yielded pEC50 of 6.00 to 7.00

###

test system: Jurkat cells; test: IL-2 secretion assay in CD3/CD28-activated Jurkat cells (AlphaLISA); assay type: cell-based; conditions: Homo sapiens, CD3/CD28 T Cell Activator, 24 h, IL-2 AlphaLISA
observedProperty: EC50

CC1CC(c2cccc(-n3cc(C4CC4)c4cc(CN5CCN(C)C[C@@H]5C(C)C)[nH]c4c3=O)c2)(c2nncn2C)C1 (stereo partly shown) yielded EC50 of 100 to 1000 nM

CC1CC(c2cccc(-n3cc(C4CC4)c4cc(CN(C)C5CCCC5)[nH]c4c3=O)c2)(c2nncn2C)C1 (stereo not shown) yielded EC50 of < 100 nM

###

Listed here: items and their measured EC50.
tested on: Jurkat cells; experiment: IL-2 secretion assay in CD3/CD28-activated Jurkat cells (AlphaLISA); type: cell-based; settings: Homo sapiens, CD3/CD28 T Cell Activator, 24 h, IL-2 AlphaLISA

- compound: "COC1CC(c2cccc(-n3cc(C4CC4)c4cc(CN5CCO[C@H](C)C5)[nH]c4c3=O)c2)(c2nncn2C)C1 (stereo partly drawn)"
  EC50: "0.1 to 1 µM"

Field: next compound
C[C@H]1CCCN(Cc2nc3c(C4CC4)cn(-c4cccc(C5(c6nncn6C)CC6(CC6)C5)c4)c(=O)c3[nH]2)C1 yielded EC50 of < 0.1 µM

###

molecular target: Cbl-b (Homo sapiens, UniProt Q13191); construct: biotin (biotinylated); test: Cbl-b probe displacement HTRF binding assay; details: 0.4 nM biotinylated Cbl-b, 150 nM BODIPY probe
Sequence (Q13191 whole entry, species assumed): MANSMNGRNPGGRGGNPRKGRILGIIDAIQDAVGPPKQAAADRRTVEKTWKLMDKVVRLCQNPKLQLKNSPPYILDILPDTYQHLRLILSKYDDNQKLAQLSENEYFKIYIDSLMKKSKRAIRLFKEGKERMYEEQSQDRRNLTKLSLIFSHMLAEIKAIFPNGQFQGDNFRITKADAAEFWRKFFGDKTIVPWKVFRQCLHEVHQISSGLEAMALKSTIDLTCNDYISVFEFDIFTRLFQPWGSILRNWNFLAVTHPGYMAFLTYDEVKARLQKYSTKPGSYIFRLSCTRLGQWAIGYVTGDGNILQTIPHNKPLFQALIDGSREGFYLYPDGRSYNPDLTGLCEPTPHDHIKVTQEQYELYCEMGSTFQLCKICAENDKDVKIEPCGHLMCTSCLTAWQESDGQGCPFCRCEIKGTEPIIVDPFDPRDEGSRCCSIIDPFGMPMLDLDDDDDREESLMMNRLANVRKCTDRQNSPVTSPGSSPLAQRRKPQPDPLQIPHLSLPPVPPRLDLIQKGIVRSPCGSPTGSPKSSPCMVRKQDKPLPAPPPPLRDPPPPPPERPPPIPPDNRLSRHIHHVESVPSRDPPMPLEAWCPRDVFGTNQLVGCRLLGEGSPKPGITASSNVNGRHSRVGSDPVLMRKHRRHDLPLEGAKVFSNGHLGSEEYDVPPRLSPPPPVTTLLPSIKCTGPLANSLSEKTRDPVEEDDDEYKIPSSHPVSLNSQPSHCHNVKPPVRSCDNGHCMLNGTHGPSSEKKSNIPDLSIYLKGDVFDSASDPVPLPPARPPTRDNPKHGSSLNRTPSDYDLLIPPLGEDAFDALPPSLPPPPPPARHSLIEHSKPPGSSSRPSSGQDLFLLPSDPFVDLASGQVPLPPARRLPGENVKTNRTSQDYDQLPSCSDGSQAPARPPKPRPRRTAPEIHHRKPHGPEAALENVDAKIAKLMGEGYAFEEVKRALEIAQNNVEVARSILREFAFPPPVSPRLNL
pIC50: −log10 of the molar value.
Listed here: items and their measured pIC50.

- compound: "COC(c1cccc(-n2cc(C3CC3)c3cc(CN4CCC[C@H](C)C4)[nH]c3c2=O)c1)c1nncn1C (stereo partly drawn)"
  targetSystem: "Cbl-b (Homo sapiens, UniProt Q13191)"
  pIC50: "> 7.00"

C[C@H]1CCCN(Cc2cc3c(C4CC4)cn(-c4cccc(C5(c6ncco6)CC(F)(F)C5)c4)c(=O)c3[nH]2)C1 yielded pIC50 of 6.00 to 7.00

Cn1cnnc1[C@]1(c2cccc(-n3cc(C(F)(F)F)c4c(S(C)(=O)=O)c[nH]c4c3=O)c2)C[C@H](C)C1 yielded pIC50 of > 7.00

###

Listed here: items and their measured EC50.
test system: Jurkat cells; assay: IL-2 secretion assay in CD3/CD28-activated Jurkat cells (AlphaLISA); type: cell-based; conditions: Homo sapiens, CD3/CD28 T Cell Activator, 24 h, IL-2 AlphaLISA

- molecule: "Cn1cnnc1C1(c2cccc(-n3cc(C4CC4)c4cc(CN5CCC6(CC6)C5)[nH]c4c3=O)c2)CC(F)(F)C1"
  EC50: "< 100 nM"
- molecule: "C[C@H]1CCCN(Cc2cc3ncn(-c4cccc(C5(c6nncn6C)CC(F)(F)C5)c4)c(=O)c3[nH]2)C1"
  EC50: "100 to 1000 nM"
- molecule: "O=c1c2[nH]c(CNCC3(O)CCC3)cc2c(C2CC2)cn1-c1cccc([C@]2(c3nncn3C(F)F)C[C@H](OC(F)F)C2)c1"
  EC50: "1000 to 5000 nM"
- molecule: "CC1CC(c2cccc(-n3cc(C4CC4)c4cc(CNCCOC(F)(F)F)[nH]c4c3=O)c2)(c2nncn2C)C1 (centres unmarked)"
  EC50: "100 to 1000 nM"
- molecule: "CC1CC(c2cccc(-n3cc(C4CC4)c4cc(CN5CCO[C@H](C)C5)[nH]c4c3=O)c2)(c2nncn2C)C1 (some centres unmarked)"
  EC50: "< 100 nM"

Cn1cnnc1[C@]1(c2cccc(-n3cc(C(F)(F)F)c4cn[nH]c4c3=O)c2)C[C@H](C)C1 yielded EC50 of 100 to 1000 nM

C[C@H]1CCCN(Cc2cc3c(C4CC4)cn(-c4cccc([C@]5(c6nncn6C)C[C@H](F)C5)c4)c(=O)c3[nH]2)C1 yielded EC50 of < 100 nM

CC(C)[C@H]1CN(C)CCN1Cc1cc2c(C3CC3)cn(-c3cccc(C4(c5nncn5C)CC5(CC5)C4)c3)c(=O)c2[nH]1 yielded EC50 of 100 to 1000 nM

CC(C)[C@H]1CNCCN1Cc1cc2c(C3CC3)cn(-c3cccc(C4(c5nncn5C)CC5(CC5)C4)c3)c(=O)c2[nH]1 yielded EC50 of 1000 to 5000 nM

C[C@H]1CCCN(Cc2cc3c(C4CC4)cn(-c4cccc(C5(c6nncn6C)CC(F)(F)C5)c4)c(=O)c3[nH]2)C1 yielded EC50 of < 100 nM

CO[C@H]1C[C@](c2cccc(-n3cc(C4CC4)c4cc(CN5CCC6(CC6)C5)[nH]c4c3=O)c2)(c2nncn2C)C1 yielded EC50 of 100 to 1000 nM

CCO[C@H]1C[C@](c2cccc(-n3cc(C4CC4)c4cc(CN5CCC[C@H](C)C5)[nH]c4c3=O)c2)(c2nncn2C)C1 yielded EC50 of < 100 nM

C[C@H]1CCCN(Cc2cc3c(C4CC4)cn(-c4cccc(C5(c6nncn6C)CC6(CC6)C5)c4)c(=O)c3[nH]2)C1 yielded EC50 of < 100 nM

CC1CC(c2cccc(-n3cc(C4CC4)c4cc(CN(C)S(C)(=O)=O)[nH]c4c3=O)c2)(c2nncn2C)C1 (centres unmarked) yielded EC50 of 1000 to 5000 nM

C[C@@H]1CN(Cc2nc3c(C(F)(F)F)cn(-c4cccc(C5(c6nncn6C)CC(F)(F)C5)c4)c(=O)c3[nH]2)CCO1 yielded EC50 of > 5000 nM

CC1CC(c2cccc(-n3cc(C4CC4)c4cc(CN5[C@@H]6COC[C@H]5C6)[nH]c4c3=O)c2)(c2nncn2C)C1 (some centres unmarked) yielded EC50 of 1000 to 5000 nM

CC1CC(c2cccc(-n3cc(C4CC4)c4cc(CN5C[C@@H]6C[C@H]5CN6)[nH]c4c3=O)c2)(c2nncn2C)C1 (some centres unmarked) yielded EC50 of > 5000 nM

Cn1cnnc1[C@]1(c2cccc(-n3cc(C4CC4)c4[nH]c(=O)[nH]c4c3=O)c2)C[C@H](C)C1 (single isomer, unassigned) yielded EC50 of > 5000 nM

C[C@H]1CCCN(Cc2cc3c(C4CC4)cn(-c4cccc(C(C)(F)c5nncn5C)c4)c(=O)c3[nH]2)C1 (some centres unmarked) yielded EC50 of < 100 nM

Cn1cnnc1[C@]1(c2cccc(-n3cc(S(C)(=O)=O)c4cc[nH]c4c3=O)c2)C[C@H](C)C1 (single isomer, unassigned) yielded EC50 of > 5000 nM

CC1CC(c2cccc(-n3cc(C4CC4)c4c(C#N)c(CN5CCC[C@H](C)C5)[nH]c4c3=O)c2)(c2nncn2C)C1 (mixture of isomers) yielded EC50 of < 100 nM

CC(C)n1cnnc1C1(c2cccc(-n3cc(C4CC4)c4cc(CN5CCC[C@H](C)C5)[nH]c4c3=O)c2)CC2(CC2)C1 yielded EC50 of 1000 to 5000 nM

C[C@H]1CCCN(Cc2cc3c(C4CC4)cn(-c4cccc([C@]5(c6nncn6C)C[C@H](OC(F)F)C5)c4)c(=O)c3[nH]2)C1 yielded EC50 of < 100 nM

CC1CC(c2cccc(-n3cc(C4CC4)c4cc(CN5CCC[C@H](F)C5)[nH]c4c3=O)c2)(c2nncn2C)C1 (some centres unmarked) yielded EC50 of 100 to 1000 nM

CC1CC(c2cccc(-n3cc(C4CC4)c4cc(CNC5(C)CCC5)[nH]c4c3=O)c2)(c2nncn2C)C1 (centres unmarked) yielded EC50 of < 100 nM

C[C@H]1CCCN(Cc2cc3c(C4CC4)cn(-c4cc(C(C)(C)c5nncn5C)ccn4)c(=O)c3[nH]2)C1 yielded EC50 of 100 to 1000 nM
